System tested: T1, ZIKV virus-like particles (Suriname Z1106033) (Zika virus, Suriname Z1106033, UniProt A0A0U4DG08, strain)
T1 construct: also called ZIKV-VLP; VLP; source: bought: The Native Antigen Company
Assay info: BLI; Octet HTX; MAb 0.1 to 0.3 μg/mL amine-coupled to AR2G biosensor; ZIKV-VLP 0.1 to 1.0 μg/mL or ZIKV E protein 0.2 to 2 μg/mL in 1x kinetic buffer; association 900 s, dissociation 1,200 s; Langmuir 1:1 model; average of two runs
Recorded conditions: both partners purified
Value kind: kon (M⁻¹ s⁻¹)
Supply the numeric figure in M⁻¹ s⁻¹, leaving out any unit text.

Binder	Value kind	Units	Measured number
anti-ZIKV MAb 78-2 (antibody, V domains shown) VH: QQQLVESGGGLVKPGASLTLNCKASGLDFSTNSYMCWVRQAPGKGLEWIACIYVGDSSEIYYASWAKGRFTISKTSSTTVTLQMTSLTAADTATYFCARDLPSFTAPYAGYLRLWGPGTLVTVSS VL: QPVLTQPPSLSASLGTTARLTCTLRTGYNVGDYPLLWLQRVPGRPPRYLLTYHTEEFKHQGSGVHSRFSGSKDASENAGVLSISGLQPEDEANYYCYTVHATESSLHYVFGGGTQLTVT	kon	M⁻¹ s⁻¹	221000
anti-ZIKV MAb 11-3 (antibody, V domains shown, recombinant rabbit IgG) VH: QEQLVESGGGLVQPEGSLTITCTGSGFSFSSRFYMCWVRQAPGKGLEWIACIYGGSSGSTYYASWAKGRFTISKTSSTTVTLQISSLTAADTATYFCARGGSTAAAGFNLWGPGTLLTVSS VL: DVVMTQTPASVSATVGGTVTIKCQASEDIYNLLAWYQQKPGQPPKLLIYYASTLASGVPSRFKGSGSGTEFTLTISDLECADAATYYCQCNDYGGTYVPNAFGGGTEVVVK	kon	M⁻¹ s⁻¹	125000

Now, please, on to the next binder.
Bench note: what kon did anti-ZIKV MAb 270-12 (antibody, V domains shown, source: 293-6E cells, cotransfected, purified (MabSelect SuRe protein A)) VH: QAQLEESGGDLVKPEGSLTLTCTASGFSFTDRHYMCWVRQAPGKGLEWIACVYPGSSGSTYYASWARGRFTISKTSSTTVTLRMTSLTAADTATYFCARSSYPDSSGYSYGMDLWGPGTLVTVSS VL: DIVMTQTPASVEAAVGGTVTIKCQASQDINSNLAWYQQKPGQRPKFLMYLTSKLASGVPSRFRGSGSGTQFTLTISDLECADAATYYCQTYYDISNYGYAFGGGTEVVVK show?
140000
